List of protein stability index values.
B1: PRPH (parent)
chain: RTFGPPPSLSPGAFSYSSSSRFSS

- Variants of: B1
- Assay name: protein stability index of a GFP-peptide fusion (GPS, HEK-293T) (PSI 1-6); higher = more stable;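 further: lentivirally expressed fusions sorted by FACS into six bins by GFP to DsRed ratio, PSI derived from sequencing read proportions per bin multiplied by bin number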
- Measurement parameters: c terminus: a fixed tail appended
Write the value as a bare number.

Sample records with protein stability index:
INSERT INTO results (variant_spec, measured_attribute, measured_result) VALUES
  ('G12M', 'protein stability index', 2.89),
  ('L9W', 'protein stability index', 3.09),
  ('S20H', 'protein stability index', 2.96);

Value of measured protein stability index for the entry "T2G" : 2.89

Value of measured protein stability index for the entry "S18A" : 2.76

Value of measured protein stability index for the entry "G4I" : 2.55

Value of measured protein stability index for the entry "P7T" : 3.56

Value of measured protein stability index for the entry "P7Y" : 2.12

Value of measured protein stability index for the entry "F14L" : 3.4

Value of measured protein stability index for the entry "P7N" : 3.02

Value of measured protein stability index for the entry "S17D" : 3.06

Value of measured protein stability index for the entry "S20C" : 2.33

Value of measured protein stability index for the entry "R21N" : 3.03

Value of measured protein stability index for the entry "P11W" : 2.23

Value of measured protein stability index for the entry "P11A" : 3.11

Value of measured protein stability index for the entry "S24V" : 2.3

Value of measured protein stability index for the entry "L9N" : 3.42

Value of measured protein stability index for the entry "R1D" : 3.29

Value of measured protein stability index for the entry "R1C" : 2.59

Value of measured protein stability index for the entry "P6E" : 2.83

Value of measured protein stability index for the entry "A13H" : 3.05

Value of measured protein stability index for the entry "F3I" : 3.46

Value of measured protein stability index for the entry "S20E" : 2.76
